Reference for the values: patent US20190106460A1

Measured % Inhibition Skp2 @ 10 µM of individual entries
molecular target: Skp2 (UniProt Q13309 1-424, limits assumed); test: cell-based or functional assay
Sequence (Q13309 whole entry): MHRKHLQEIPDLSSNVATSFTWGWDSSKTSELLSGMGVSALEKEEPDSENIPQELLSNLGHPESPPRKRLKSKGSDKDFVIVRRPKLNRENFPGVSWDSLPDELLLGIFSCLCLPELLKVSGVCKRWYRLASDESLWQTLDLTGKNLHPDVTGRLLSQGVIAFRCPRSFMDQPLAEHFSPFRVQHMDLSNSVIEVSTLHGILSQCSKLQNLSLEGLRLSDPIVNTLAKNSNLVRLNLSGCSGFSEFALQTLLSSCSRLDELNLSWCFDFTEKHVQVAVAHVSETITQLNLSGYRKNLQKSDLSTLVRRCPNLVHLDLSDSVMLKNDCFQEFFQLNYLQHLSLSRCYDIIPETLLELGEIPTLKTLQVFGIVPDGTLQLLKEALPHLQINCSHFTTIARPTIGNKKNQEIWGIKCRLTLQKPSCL
Starred links: 1 amine or outer side, 2 acyl side, 3 side chain; linkers in the order of their positions; H or OH if unused. Non-standard residues stand in square brackets, D forms with d. *: point of attachment. Phe(4-NO2) = N[C@@H](Cc1ccc([N+](=O)[O-])cc1)C(=O)O; 2Naphthylsulfonyl = O=S(=O)(c1ccc2ccccc2c1)*; Phe(3-F) = N[C@@H](Cc1cccc(F)c1)C(=O)O; 1Nal = N[C@@H](Cc1cccc2ccccc12)C(=O)O; Maleoyl = O=C(/C=C\C(=O)[*:2])[*:1]
# unit: % | format: bare number

The following binders have reported results that may help.
[[record]]
binder = "Ac-[dD]EG[Phe(3-F)][1Nal]E-NH2 (SMILES CC(=O)N[C@H](CC(=O)O)C(=O)N[C@@H](CCC(=O)O)C(=O)NCC(=O)N[C@@H](Cc1cccc(F)c1)C(=O)N[C@@H](Cc1cccc2ccccc12)C(=O)N[C@@H](CCC(=O)O)C(N)=O, also called UBP016) [Ac-dEGF(3F)1NalE-NH2]"
experimental_readout = "% Inhibition Skp2 @ 10 µM"
quantitative_readout = 0

[[record]]
binder = "2Naphthylsulfonyl-[dD]EG[Phe(3-F)]WE-NH2 (SMILES NC(=O)[C@H](CCC(=O)O)NC(=O)[C@H](Cc1c[nH]c2ccccc12)NC(=O)[C@H](Cc1cccc(F)c1)NC(=O)CNC(=O)[C@H](CCC(=O)O)NC(=O)[C@@H](CC(=O)O)NS(=O)(=O)c1ccc2ccccc2c1, also called UBP031) [2-NaphthylSO2-dEGF(3F)WE-NH2]"
experimental_readout = "% Inhibition Skp2 @ 10 µM"
quantitative_readout = 0


Proceeding to the next binder to report its % Inhibition Skp2 @ 10 µM.
Lab book: % Inhibition Skp2 @ 10 µM of Maleoyl-EG[Phe(3-F)][Phe(4-NO2)]E-NH2 (SMILES NC(=O)[C@H](CCC(=O)O)NC(=O)[C@H](Cc1ccc([N+](=O)[O-])cc1)NC(=O)[C@H](Cc1cccc(F)c1)NC(=O)CNC(=O)[C@H](CCC(=O)O)NC(=O)/C=C\C(=O)O) [Mal-EGF(3F)F(4NO2)E-NH2] noted as 0
